Provenance of the data: patent US20240117038A1

// values below are reported pEC50
Assay system: T1, human CX3CR1 (human, UniProt P49238 1-355)
T1 construct: Overexpressed on CHO K1, Ba/F3 or HEK293T cells; also called huCX3CR1; hCX3CR1
T1 sequence: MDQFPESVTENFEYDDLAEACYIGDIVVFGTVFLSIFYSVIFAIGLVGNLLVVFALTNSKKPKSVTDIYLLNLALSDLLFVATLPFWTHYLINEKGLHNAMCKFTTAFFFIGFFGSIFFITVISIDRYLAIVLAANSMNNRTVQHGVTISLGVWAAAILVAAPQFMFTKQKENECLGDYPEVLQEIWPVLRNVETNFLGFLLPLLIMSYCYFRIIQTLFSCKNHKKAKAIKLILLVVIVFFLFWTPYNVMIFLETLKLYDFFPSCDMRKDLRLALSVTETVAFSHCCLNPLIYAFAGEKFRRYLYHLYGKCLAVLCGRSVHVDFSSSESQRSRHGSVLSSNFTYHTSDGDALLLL
Measurement protocol: flow cytometry on CHO K1 huCX3CR1 cells, 30 uM HSA
Here pEC50 is given on a logarithmic scale as minus log10 of the concentration in mol/L.

- A041600011 (VHH, Trivalent ISVD construct (two anti-CX3CR1 ISVDs, one anti-albumin ISVD), C-terminal alanine included in the entry; also called 66B02_SO (E1D)-9GS-66B02_SO-9GS-ALB23002-A) DVQLVESGGGSVQPGGSLRLSCAASGSIFSSTAMAWYRQAPGKRRDLVAAINTVGVTKYADSVKGRFTISRDNAKNTVYLQMNSLRPEDTALYYCTSDPRRGWDTRYWGQGTLVTVSSGGGGSGGGSEVQLVESGGGSVQPGGSLRLSCAASGSIFSSTAMAWYRQAPGKRRDLVAAINTVGVTKYADSVKGRFTISRDNAKNTVYLQMNSLRPEDTALYYCTSDPRRGWDTRYWGQGTLVTVSSGGGGSGGGSEVQLVESGGGVVQPGGSLRLSCAASGFTFRSFGMSWVRQAPGKGPEWVSSISGSGSDTLYADSVKGRFTISRDNSKNTLYLQMNSLRPEDTALYYCTIGGSLSRSSQGTLVTVSSA: 10.10

Entry A041600040 (VHH, Trivalent ISVD construct (two anti-CX3CR1 ISVDs, one anti-albumin ISVD), C-terminal alanine included in the entry; also called 66B02_SO (E1D)-9GS-54A12_SO-9GS-ALB23002-A) DVQLVESGGGSVQPGGSLRLSCAASGSIFSSTAMAWYRQAPGKRRDLVAAINTVGVTKYADSVKGRFTISRDNAKNTVYLQMNSLRPEDTALYYCTSDPRRGWDTRYWGQGTLVTVSSGGGGSGGGSEVQLVESGGGSVQPGGSLRLSCAASGSIFSSTAMAWYRQAPGKQRDLVAVISTVGITKYADSVKGRFTISRDNAKNTVYLQMNSLRPEDTALYYCTSDARRGWDTRYWGQGTLVTVSSGGGGSGGGSEVQLVESGGGVVQPGGSLRLSCAASGFTFRSFGMSWVRQAPGKGPEWVSSISGSGSDTLYADSVKGRFTISRDNSKNTLYLQMNSLRPEDTALYYCTIGGSLSRSSQGTLVTVSSA , pEC50 reported as 10.00

Record A041600026 (VHH, Trivalent ISVD construct; also called 66B02_SO (E1D)-20GS-ALB23002-20GS-66B02_SO-A) DVQLVESGGGSVQPGGSLRLSCAASGSIFSSTAMAWYRQAPGKRRDLVAAINTVGVTKYADSVKGRFTISRDNAKNTVYLQMNSLRPEDTALYYCTSDPRRGWDTRYWGQGTLVTVSSGGGGSGGGGSGGGGSGGGGSEVQLVESGGGVVQPGGSLRLSCAASGFTFRSFGMSWVRQAPGKGPEWVSSISGSGSDTLYADSVKGRFTISRDNSKNTLYLQMNSLRPEDTALYYCTIGGSLSRSSQGTLVTVSSGGGGSGGGGSGGGGSGGGGSEVQLVESGGGSVQPGGSLRLSCAASGSIFSSTAMAWYRQAPGKRRDLVAAINTVGVTKYADSVKGRFTISRDNAKNTVYLQMNSLRPEDTALYYCTSDPRRGWDTRYWGQGTLVTVSSA . Reported pEC50: 9.54
